Molecular target: wild-type HpSK (Helicobacter pylori)
Construct: His6 (own knowledge: the pQE30 vector gives an N-terminal MRGS-His6 tag); made in house; host or cells: E. coli (printed for the mutants; same procedures as for wild type)
Sequence (P56073 whole entry): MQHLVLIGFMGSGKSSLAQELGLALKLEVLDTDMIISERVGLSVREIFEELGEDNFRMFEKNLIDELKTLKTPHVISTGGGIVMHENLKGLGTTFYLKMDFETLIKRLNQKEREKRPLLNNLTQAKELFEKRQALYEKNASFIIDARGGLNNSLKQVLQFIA
Assay: Isothermal titration calorimetry, wild-type HpSK
Type: binding
endpoint label: Kd (nM)
Note: unit nM is implicit; provide only the numeric part.

For record O=C(O)C1=C[C@@H](O)[C@@H](O)[C@H](O)C1 [shikimate, shikimic acid] the listed Kd is 320

---

Molecular target: HpSK E114A (Helicobacter pylori, UniProt P56073, E114A)
Construct: His6 (own knowledge: pQE30 vector gives an N-terminal MRGS-His6 tag)
Sequence (P56073 whole entry E114A): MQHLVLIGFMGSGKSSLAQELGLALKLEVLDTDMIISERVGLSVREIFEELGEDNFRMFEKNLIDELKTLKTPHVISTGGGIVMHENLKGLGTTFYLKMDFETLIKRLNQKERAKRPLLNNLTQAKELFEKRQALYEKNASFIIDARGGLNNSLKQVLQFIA
Experiment: Isothermal titration calorimetry, E114A
Conditions: ITC, 25°C, ND = not detectable
endpoint label: pKd
Please express pKd as -log10 of the molar concentration.

For record O=C(O)C1=C[C@@H](O)[C@@H](O)[C@H](O)C1 [shikimate, shikimic acid] the listed pKd is 6.48
